The measured values listed here are drawn from paper PMC5240567.

- SUBJECT OF TEST: T1, PREP1hd (UniProt P55347 257-325)
- T1 sequence: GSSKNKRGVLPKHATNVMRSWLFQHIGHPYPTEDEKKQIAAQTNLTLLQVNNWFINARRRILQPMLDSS
- TEST SUMMARY: fluorescence polarization; FP and EMSA: 20 mM Na/K phosphate pH 7.2, 150 mM NaCl, 5% glycerol, 1 mM TCEP, room temperature (FP 9 nM DNA, 30 min; EMSA gel run at 4 C in 0.5x TBE); NMR: 20
- MEASUREMENT SETUP: protein: recombinant; tags: GST cleaved (pGEX-6P); label: 5' 6-FAM (FP); unlabeled in EMSA and NMR
VALUE KIND: pKd
Answer as the number alone; pKd is minus log10 of concentration in mol/L.

Short answer for PMH (dsDNA) DNA 1: AGTGATTGACAGATTC DNA 2: GAATCTGTCAATCACT : pKd was 4.50
